Measured IC50 values are reported for all entries that follow.
Test system: 945468-187-T-J2-PDC spheroids viability
Assay: Anticancer human tumor 945468-187-T-J2-PDC patient-derived rectal carcinoma cell line growth inhibition [PI3K]
Settings: curve of first compound; second compound 0.01 µM; spheroids with HUVEC and MSC

Molecule	Experimental Target	IC50
CC(Cn1ccc(-c2ccc(C#N)c(Cl)c2)n1)NC(=O)c1cc(C(C)O)[nH]n1 (centres undefined) + COc1c(OCCCN2CCOCC2)ccc2c3n(c(=NC(=O)c4cnc(N)nc4)nc12)CCN3	945468-187-T-J2-PDC spheroids viability	> 10000 nM
CC(C)n1nc(-c2ccc3oc(N)nc3c2)c2c(N)ncnc21 + CC(Nc1ccc2c(c1)OCCn1cc(N3C(=O)OCC3C(F)F)nc1-2)C(N)=O	945468-187-T-J2-PDC spheroids viability	> 100 nM
CC1(C)CCC(CN2CCN(c3ccc(C(=O)NS(=O)(=O)c4ccc(NCC5CCOCC5)c([N+](=O)[O-])c4)c(Oc4cnc5[nH]ccc5c4)c3)CC2)=C(c2ccc(Cl)cc2)C1 + COc1c(OCCCN2CCOCC2)ccc2c3n(c(=NC(=O)c4cnc(N)nc4)nc12)CCN3	945468-187-T-J2-PDC spheroids viability	> 10000 nM

Now let's try a different one.
Query string: For CC(Cn1ccc(-c2ccc(C#N)c(Cl)c2)n1)NC(=O)c1cc(C(C)O)[nH]n1 (centres undefined) + CC(Nc1ccc2c(c1)OCCn1cc(N3C(=O)OCC3C(F)F)nc1-2)C(N)=O , what is its reported IC50?
Result string: > 10000 nM

###

Items are presented alongside their recorded viability, T/C.
System: 945468-187-T-J2-PDC spheroids viability
Assay: Anticancer human tumor 945468-187-T-J2-PDC cell line growth inhibition [PI3K];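 note: spheroids exposed to compounds for seven days before reading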
Settings: second compound 0.0316 µM; first compound 10 µM; stronger effect = lower value; spheroids with HUVEC and MSC
# number only, unit % dropped from output

Use these answered entries as a reference point.
Compound	viability, T/C [%]
CC(Cn1ccc(-c2ccc(C#N)c(Cl)c2)n1)NC(=O)c1cc(C(C)O)[nH]n1 (stereo unspecified) + Cc1nc(NC(=O)N2CCCC2C(N)=O)sc1-c1ccnc(C(C)(C)C(F)(F)F)c1	82.5
CC1(C)CCC(Nc2ncc(C(F)(F)F)c(-c3c[nH]c4c(P(C)(C)=O)c(C#N)ccc34)n2)CN1 (stereo unspecified) + CC(Nc1ccc2c(c1)OCCn1cc(N3C(=O)OCC3C(F)F)nc1-2)C(N)=O	43.8
Cn1nccc1Nc1nccc(-c2ccn(C(CO)c3ccc(Cl)c(F)c3)c(=O)c2)n1 (stereo unspecified) + CC(Nc1ccc2c(c1)OCCn1cc(N3C(=O)OCC3C(F)F)nc1-2)C(N)=O	77.6

Query string: Entry C[C@@H](NC(=O)c1ncnc(N)c1Cl)c1ncc(C(=O)Nc2cc(C(F)(F)F)c(Cl)cn2)s1 + CC(Nc1ccc2c(c1)OCCn1cc(N3C(=O)OCC3C(F)F)nc1-2)C(N)=O , system 945468-187-T-J2-PDC spheroids viability: what viability, T/C was measured?
Result string: 90.3

Query string: Tell me reported viability, T/C for CC1(C)CCC(Nc2ncc(C(F)(F)F)c(-c3c[nH]c4c(P(C)(C)=O)c(C#N)ccc34)n2)CN1 (stereo unspecified) + Cc1nc(NC(=O)N2CCCC2C(N)=O)sc1-c1ccnc(C(C)(C)C(F)(F)F)c1 , tested with 945468-187-T-J2-PDC spheroids viability.
Result string: 45.3

Query string: Which measured viability, T/C belongs to CC1(C)CCC(CN2CCN(c3ccc(C(=O)NS(=O)(=O)c4ccc(NCC5CCOCC5)c([N+](=O)[O-])c4)c(Oc4cnc5[nH]ccc5c4)c3)CC2)=C(c2ccc(Cl)cc2)C1 + CC(Nc1ccc2c(c1)OCCn1cc(N3C(=O)OCC3C(F)F)nc1-2)C(N)=O , tested on 945468-187-T-J2-PDC spheroids viability?
Result string: 34.6
